cAMP EC50 (1.0% HSA) values, listed per item
testSystem: human GLP-1 receptor (human, UniProt P43220 24-463)
assayText: cell-based or functional assay
resultType: cAMP EC50 (1.0% HSA) (nM)

[[record]]
binder = "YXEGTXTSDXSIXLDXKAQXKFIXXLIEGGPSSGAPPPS (Y-Aib-EGT-αMeF(2F)-TSD-hTyr-SI-αMeL-LD-Orn-K((2-[2-(2-Amino-ethoxy)-ethoxy]-acetyl)2-CO-(CH2)12-CO2H)AQ-Aib-K((2-[2-(2-Amino-ethoxy)-ethoxy]-acetyl)2-CO-(CH2)12-CO2H)FI-(D-Glu)-αMeY-LIEGGPSSGAPPPS-NH2 …) [Example 272]"
resulttype = "cAMP EC50 (1.0% HSA)"
unitinfo = "nM"
observedvalue = 4.72

[[record]]
binder = "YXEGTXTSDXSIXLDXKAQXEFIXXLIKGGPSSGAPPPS (Y-Aib-EGT-αMeF(2F)-TSD-OMeY-SI-αMeL-LD-Orn-K((2-[2-(2-Amino-ethoxy)-ethoxy]-acetyl)2-CO-(CH2)12-CO2H)AQ-Aib-EFI-(D-Glu)-αMeY-LIK((2-[2-(2-Amino-ethoxy)-ethoxy]-acetyl)2-CO-(CH2)12-CO2H)GGPSSGAPPPS-NH2 …) [Example 266]"
resulttype = "cAMP EC50 (1.0% HSA)"
unitinfo = "nM"
observedvalue = 5.83

[[record]]
binder = "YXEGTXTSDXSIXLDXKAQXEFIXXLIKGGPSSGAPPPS (Y-Aib-EGT-αMeF(2F)-TSD-OMeY-SI-αMeL-LD-Orn-K((2-[2-(2-Amino-ethoxy)-ethoxy]-acetyl)2-(γ-Glu)-CO-(CH2)12-CO2H)AQ-Aib-EFI-(D-Glu)-αMeY-LIK((2-[2-(2-Amino-ethoxy)-ethoxy]-acetyl)2-(γ-Glu)-CO-(CH2)12-CO2H)GGPSSGAPPPS-NH2) [Example 260]"
resulttype = "cAMP EC50 (1.0% HSA)"
unitinfo = "nM"
observedvalue = 32

[[record]]
binder = "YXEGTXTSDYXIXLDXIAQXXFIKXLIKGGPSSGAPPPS (Y-Aib-EGT-αMeF(2F)-TSDY-Aib-I-αMeL-LD-Orn-IAQ-Aib-Orn-FIK((2-[2-(2-Amino-ethoxy)-ethoxy]-acetyl)2-(γ-Glu)-CO-(CH2)12-CO2H)-αMeY-LIK((2-[2-(2-Amino-ethoxy)-ethoxy]-acetyl)2-(γ-Glu)-CO-(CH2)12-CO2H)GGPSSGAPPPS-NH2) [Example 316]"
resulttype = "cAMP EC50 (1.0% HSA)"
unitinfo = "nM"
observedvalue = 19.2

[[record]]
binder = "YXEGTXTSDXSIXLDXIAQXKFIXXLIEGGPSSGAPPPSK (Y-Aib-EGT-αMeF(2F)-TSD-4Pal-SI-αMeL-LD-Orn-IAQ-Aib-K(2-[2-(2-Amino-ethoxy)-ethoxy]-acetyl)2-(γ-Glu)-(11-(4-carboxyphenoxy)undecanoyl)FI-(D-Glu)-αMeY-LIEGGPSSGAPPPSK((2-[2-(2-Amino-ethoxy)-ethoxy]-acetyl)2-(γ-Glu)-(11-(4-carboxyphenoxy)undecanoyl)-NH2)) [Example 288]"
resulttype = "cAMP EC50 (1.0% HSA)"
unitinfo = "nM"
observedvalue = 17.1

[[record]]
binder = "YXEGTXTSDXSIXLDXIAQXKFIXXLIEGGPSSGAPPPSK (Y-Aib-EGT-αMeF(2F)-TSD-4Pal-SI-αMeL-LD-Orn-IAQ-Aib-K((2-[2-(2-Amino-ethoxy)-ethoxy]-acetyl)3-(γ-Glu)-CO-(CH2)12-CO2H)FI-(D-Glu)-αMeY-LIEGGPSSGAPPPSK((2-[2-(2-Amino-ethoxy)-ethoxy]-acetyl)3-(γ-Glu)-CO-(CH2)12-CO2H)-NH2) [Example 228]"
resulttype = "cAMP EC50 (1.0% HSA)"
unitinfo = "nM"
observedvalue = 42

[[record]]
binder = "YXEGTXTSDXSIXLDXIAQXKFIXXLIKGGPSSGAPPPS (Y-Aib-EGT-αMeF(2F)-TSD-4Pa1-SI-αMeL-LD-Orn-IAQ-Aib-K((2-[2-(2-Amino-ethoxy)-ethoxy]-acetyl)2-(γ-Glu)-(10-(4-carboxyphenoxy)decanoyl))FI-(D-Glu)-αMeY-LIK((2-[2-(2-Amino-ethoxy)-ethoxy]-acetyl)2-(γ-Glu)-(10-(4-carboxyphenoxy)decanoyl))GGPSSGAPPPS-NH2) [Example 275]"
resulttype = "cAMP EC50 (1.0% HSA)"
unitinfo = "nM"
observedvalue = 33.5

[[record]]
binder = "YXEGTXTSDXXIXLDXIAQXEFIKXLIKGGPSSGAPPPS (Y-Aib-EGT-αMeF(2F)-TSD-4Pal-Aib-I-αMeL-LD-Orn-IAQ-Aib-EFIK((2-[2-(2-Amino-ethoxy)-ethoxy]-acetyl)2-(γ-Glu)-CO-(CH2)12-CO2H)-αMeY-LIK((2-[2-(2-Amino-ethoxy)-ethoxy]-acetyl)2-(γ-Glu)-CO-(CH2)12-CO2H)GGPSSGAPPPS-NH2) [Example 219]"
resulttype = "cAMP EC50 (1.0% HSA)"
unitinfo = "nM"
observedvalue = 25.9

